Here, each record is paired with measured log reduction at 5 µg/mL data.
Tested on: HSV-1 (Miyama strain)
test.protocol: In vitro antiviral action on cells infected with HSV-1 (Miyama strain), CPE inhibition, TCID50
Assay type: cell-based, Herpes simplex virus type 1
experimental.conditions: Human alphaherpesvirus 1; 5 μg/ml; GMK cells; read-out: Antiviral Activity (ΔTCID50)

Previously resolved entries follow.
[[record]]
compound = "COc1ccccc1N1CCN(C(=O)[C@@]2(C)CC[C@]3(C)CC[C@]4(C)C(=CC[C@@H]5[C@@]6(C)CC[C@H](O)C(C)(C)[C@@H]6CC[C@]54C)[C@@H]3C2)CC1"
readout_type = "log reduction at 5 µg/mL"
value_reported = 1.2

[[record]]
compound = "CC1(C)[C@@H](OC(=O)CCC(=O)O)CC[C@]2(C)[C@H]3C(=O)C=C4[C@@H]5C[C@@](C)(C(=O)O)CC[C@]5(C)CC[C@@]4(C)[C@]3(C)CC[C@@H]12 [Carbenoxolone, reference compound]"
readout_type = "log reduction at 5 µg/mL"
value_reported = 0.3


Attention now turns to another entry.
Report log reduction at 5 µg/mL, nothing else, for this compound: Nc1ncnc2c1ncn2[C@@H]1O[C@H](CO)[C@@H](O)[C@@H]1O [Ara-a, reference compound]
1.5
